meta.source: patent US20100317706A1

Recorded melting point for the following compounds

Examples with answers:
- compound: "Cc1nc2ccccc2n1C(=O)c1cccc([N+](=O)[O-])c1 [BI-6011]"
  melting point: "120 to 122 °C"
- compound: "Cc1ccc([N+](=O)[O-])cc1S(=O)(=O)n1cnc2ccccc21 [BI-6016]"
  melting point: "159 to 161 °C"
- compound: "O=[N+]([O-])c1cccc(S(=O)(=O)n2cnc3ccccc32)c1 [BI-6001]"
  melting point: "154 to 156 °C"
- compound: "Cc1nc2ccccc2n1C(=O)c1cc([N+](=O)[O-])ccc1Cl [BI-6009]"
  melting point: "157 to 159 °C"
- compound: "O=C(c1cccc([N+](=O)[O-])c1)n1cnc2ccccc21 [BI-6012, 1-(3-Nitrobenzoyl)-1H-benzo[d]imidazole]"
  melting point: "133 to 135 °C"
- compound: "Cc1nc2ccccc2n1S(=O)(=O)c1cccc([N+](=O)[O-])c1 [BI-6002]"
  melting point: "148 to 150 °C"
- compound: "O=C(c1cc([N+](=O)[O-])ccc1Cl)n1cnc2ccccc21 [BI-6010]"
  melting point: "149 to 151 °C"

# input Write down melting point measured for item CCOC(=O)c1ccc(Cl)c(S(=O)(=O)n2c(C)nc3ccccc32)c1 [BI-6013]
# output 110 to 112 °C
